Experimental Target: Neuropeptide S receptor (Homo sapiens)
Method Notes: Confirmation Concentration-Response Assay for Antagonists of the Neuropeptide S Receptor: Calcium Signal Transduction, SAR for Probe
Applied Conditions: CHO-NPSR cells, NPS-induced calcium fluorescence, FDSS; series mostly up to 19.3 µM
Excerpt: NIH Chemical Genomics Center [NCGC] NIH Molecular Libraries Probe Production centers Network [MLPCN] MLPCN Grant: X01-DA026210-01 Assay Submitter (PI): Heilig, Markus Alexander NCGC Assay Overview: Neuropeptide S receptor (NPSR), previously known as GPR154, is a recently de-orphanized G protein coupled receptor. […] This change in intracellular calcium can be detected using a calcium indicator dye on a calcium imaging plate reader system (FDSS). […]
Records with an inconclusive call do not appear. Calls of active or inactive are those of the source. The call rests on the fitted dose curve; in most records, active means well fitted antagonist curve with a large enough effect in the main read-out, with a control signal flat; inconclusive means small, poorly fitted or top-dose-only effect; inactive means no such curve, though single readings can be large or run the other way.
Measure: Potency

Before answering, review these 10 worked examples.
>>> obs_value("Cc1nnc(NC(=O)c2cccc(S(=O)(=O)N3CCc4ccccc43)c2)s1")
"inactive"
>>> obs_value("COc1cc(/C=C2\\SC(c3ccc(C)cc3)=NC2=O)cc(OC)c1O")
"inactive"
>>> obs_value("CC1(C)O[C@@H]2C[C@H]3[C@@H]4C[C@H](F)C5=CC(=O)CC[C@]5(C)[C@H]4[C@@H](O)C[C@]3(C)[C@]2(C(=O)CO)O1")
"inactive"
>>> obs_value("COc1cccc(C2c3c(ncn(-c4ccc(Br)cc4)c3=N)Oc3ccc4ccccc4c32)c1 (stereo not given)")
"2760 nM (active)"
>>> obs_value("CC1(C)Cc2c(c(N3CCOCC3)nc3sc4c(NCC5CCCO5)nnnc4c23)CS1 (stereo not given)")
"inactive"
>>> obs_value("O=C(NCc1ccc(F)cc1)n1cc(P(=S)(c2ccccc2)c2ccccc2)c2ccccc21")
"inactive"
>>> obs_value("COc1cccc(C2c3c(ncn(-c4ccccc4C(C)(C)C)c3=N)Oc3ccc4ccccc4c32)c1 (stereo not given)")
"4380 nM (active)"
>>> obs_value("Cc1nc2ccccn2c1P(=O)(c1ccccc1)c1ccccc1")
"inactive"
>>> obs_value("N=C1c2ccccc2CN1c1ccc(N2CCOCC2)c(S(=O)(=O)Nc2ccc(Cl)cc2)c1")
"1410 nM (active)"
>>> obs_value("COc1ccc(C2c3c(ncn(Cc4ccccc4)c3=N)Oc3ccc4ccccc4c32)cc1OC (stereo not given)")
"1390 nM (active)"

Here is another compound to look at.
*Q* What value of Potency has been reported for the following compound? CN(C)C(=S)N=Nc1[nH]c2ccccc2c1O
*A* inactive

This collection of values is drawn from PubChem BioAssay AID2567.
